Below, each entry is listed with its recorded Population Membrane Permeable-Phenotype (%).
# Test system: HEK-293T
# Test Description: Multiplex assay against HEK293T
# Assay type: toxicity, cell-based
# Test Conditions: human, 48 h, 1 µM, compound concentration 1 uM, replicate 2
Numeric answer plus unit only.

Example entries begin here.
1) CCOC(=O)c1c(C)[nH]c2ccc3c(c12)CN1CCc2cc(OC)ccc2C1O3 (stereo not drawn) :: 2%
2) CN(C)C(=O)C(CCN1CCC(O)(c2ccc(Cl)cc2)CC1)(c1ccccc1)c1ccccc1.Cl [LOPERAMIDE HYDROCHLORIDE] :: 1%
3) CCN1CCN(Cc2ccc(Nc3ncc(F)c(-c4cc(F)c5nc(C)n(C(C)C)c5c4)n3)nc2)CC1.CS(=O)(=O)O :: 1%
4) CCCn1c(=O)c2[nH]c(-c3cnn(Cc4cccc(C(F)(F)F)c4)c3)nc2n(CC)c1=O :: 7%
5) CNc1cc(Oc2cc(C(=O)Nc3cc(N4CCN(C)CC4)cc(C(F)(F)F)c3)ccc2C)ncn1 :: 6%
6) Cc1cn(-c2cc(NC(=O)c3ccc(C)c(Nc4nccc(-c5cccnc5)n4)c3)cc(C(F)(F)F)c2)cn1 :: 9%
7) Cc1cc(C)c(S(=O)(=O)N(Cc2ccc(-c3cccc(S(C)(=O)=O)c3)cc2)Cc2ccc(C(F)(F)F)o2)c(C)c1 :: 7%

Continue with the next compound.
Any idea what its Population Membrane Permeable-Phenotype (%) is? The compound is O=C(Nc1ccc(Cl)cc1)Nc1cccc(-c2cccc(N3CCCC3)n2)c1 26%
